Taken from patent US9714236B2.

Readings of IC50 for the listed compounds
Biological target: recombinant JAK1 (amino acids 866-1154) (Homo sapiens (Human))
Sequence (P23458 866-1154): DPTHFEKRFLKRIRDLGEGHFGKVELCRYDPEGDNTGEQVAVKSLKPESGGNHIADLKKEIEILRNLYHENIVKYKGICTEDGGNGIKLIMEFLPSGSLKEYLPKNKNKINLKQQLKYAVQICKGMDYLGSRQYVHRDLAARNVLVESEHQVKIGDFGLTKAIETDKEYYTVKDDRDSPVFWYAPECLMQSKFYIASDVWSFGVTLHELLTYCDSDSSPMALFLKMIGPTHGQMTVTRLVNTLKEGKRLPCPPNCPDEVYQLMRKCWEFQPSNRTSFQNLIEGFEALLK
Experiment: Enzyme inhibition studies, JAK1 (peptide phosphorylation, Caliper LC3000)
Conditions: ATP concentration not given (assayed at ATP Km 55 μM and at 5 mM)
State just the number; it will be interpreted in nM.

Some solved entries appear below for comparison.
CCOc1nn(C)cc1Nc1ncc(C)c(-c2c[nH]c3c(NC(=O)[C@@H](C)N4CCN(C)C[C@H]4C)cccc23)n1 | 29
CCOc1nn(C)cc1Nc1ncc(C)c(-c2c[nH]c3c(NC(=O)[C@@H](C)N4CCN(CC)CC4)cccc23)n1 | 51
COc1nn(C)cc1Nc1ncc(Cl)c(-c2c[nH]c3c(NC(=O)[C@@H](C)N4CCN(C)CC4)cccc23)n1 | 7

Field IC50 (entry CCN1CCN([C@H](C)C(=O)Nc2cccc3c(-c4nc(Nc5cn(C)nc5OC)ncc4F)c[nH]c23)CC1 ) reads 43

Field IC50 (entry COc1nn(C)cc1Nc1ncc(C)c(-c2c[nH]c3c(NC(=O)[C@@H](C)N4CCN(C)[C@H](C)C4)cccc23)n1 ) reads 57

Field IC50 (entry CCOc1nn(C)cc1Nc1ncc(C)c(-c2c[nH]c3c(NC(=O)[C@@H](C)N4CCN(C)[C@H](C)C4)cccc23)n1 ) reads 113
